Tested on: SF-268
method: NCI tumour cell line growth inhibition, 48 h
Calls of active or inactive are those of the source. Rule as the data show it: active = GI50 up to about 1.1 µM and inactive = higher.
Outcomes: active, inactive

| compound | class |
| --- | --- |
| O=c1c2cc(O)ccc2n2nnc3ccc(NCCNCCO)c1c32 | inactive |
| C=C1C(=O)O[C@@H]2C[C@@H](C)[C@@H]3C=CC(=O)[C@@]3(C)[C@@H](OC(=O)CC(=O)O[C@H]3[C@@H]4C(=C)C(=O)O[C@@H]4C[C@@H](C)[C@@H]4C=CC(=O)[C@]43C)[C@H]12 | active |
| O=C(CN(c1ccccc1)c1ccccc1)N1c2ccccc2C2C=CC=CC21 (centres undefined) | inactive |
| COc1ccc(/N=N/c2ccc3oc(=O)c(C(=O)Nc4ccccc4C)cc3c2)cc1 | inactive |

###

# Lookup of reported GI50 keyed by entry
Test system: SNB-19
method: NCI tumour cell line growth inhibition, 48 h
Calls of active or inactive are those of the source. Cut-off read from the data, not from the text of the source: active = GI50 up to about 1.1 µM and inactive = higher.
observation.type: GI50

| compound | observation.type | measured |
| --- | --- | --- |
| CC1(C)OCC(C2OC(N3O[C@H](CI)C[C@@H]3c3ccccc3)C3OC(C)(C)OC23)O1 (stereo partly specified) | GI50 | > 100 µM (inactive) |
| COc1cc(C2SCC(=O)N2c2ccc(Cl)c(Cl)c2)cc(OC)c1OC (stereo unspecified) | GI50 | > 100 µM (inactive) |
| NCCCNCCSSC/C=C\CSSCCNCCCN | GI50 | > 100 µM (inactive) |
| COc1cc(/C=C2\NC(=O)N(/C=C3\C(=O)Oc4ccccc4C3=O)C2=O)ccc1O | GI50 | 37.5 µM (inactive) |
| CN(C)CCCNC(=O)c1cccc2ccccc12 | GI50 | > 100 µM (inactive) |
| Cc1occc1C(=S)Nc1ccc(Cl)c(C(=O)OC(C)C2CC2)c1 (stereo unspecified) | GI50 | 17.3 µM (inactive) |
| Oc1ccc(Cl)cc1/C=N/c1cnc2ccccc2c1 | GI50 | 29 µM (inactive) |
| CCN(CC)C(=S)S [DITIOCARB SODIUM] | GI50 | > 100 µM (inactive) |
| CCN(CC)c1ccc2cc(C(=O)Nc3ccccc3OC)c(=N)oc2c1 | GI50 | 16.1 µM (inactive) |
| Cc1ccc(C(=O)Oc2ccc(/C=C3\CCC/C(=C\c4ccc(OC(=O)c5ccc(C)cc5)cc4)C3=O)cc2)cc1 | GI50 | > 100 µM (inactive) |
| COC(=O)c1cn(CCCC(=O)O)nn1 | GI50 | > 100 µM (inactive) |

###

Tested on: UACC-257
method: NCI tumour cell line growth inhibition, 48 h
Calls of active or inactive are those of the source. Rule as the data show it: active = GI50 up to about 1.1 µM and inactive = higher. Where a SMILES comes first, the peptide text is derived from it. The star is where a group is joined. Boc = CC(C)(C)OC(=O)*
Outcome codes: active, inactive

| molecule | class |
| --- | --- |
| C=C(Cl)c1c(OC)cccc1OCc1ccccc1 | inactive |
| CN1C(=O)C23CC4=CC=CC(O)C4N2C(=O)C1(CO)SS3 (stereo not drawn) | active |
| Cc1cc(O)nc(NN2C(Cl)C(=O)C2c2ccccc2O)n1 (stereo not drawn) | inactive |
| CC(=N)OC1CC2CCC1(C)C2(C)C (stereo not drawn) | inactive |
| NC(CCC(=O)NC(CSSCCCCS(=O)O)C(=O)NCC(=O)O)C(=O)O (stereo not drawn) | inactive |
| CCOC(=O)c1nnsc1NC(=O)Nc1ccc(Cl)cc1 | inactive |
| CCCO/N=[N+](\[O-])N(CC)CC | inactive |
| CCOC(=O)C(C)(C)Oc1ccc2c(=O)cc(-c3ccccc3)oc2c1 | inactive |
| O=C1SC(SCc2ccccc2)=NC12CC2c1ccccc1 (stereo not drawn) | inactive |
| CN(C)CCCNC(=O)c1cccc2ccccc12 | inactive |
| C=CCC(NCc1ccccc1)[C@H](OCc1ccccc1)[C@@H]1COC(C)(C)O1 (stereo partly drawn) | inactive |
| O=S1(=O)c2ccccc2N2CCCc3cc(Cl)cc1c32 | inactive |
| CCOC(=O)C(CC(C)C)NC(=O)C(Cc1ccccc1)NC(=O)CNC(=O)OC(C)(C)C (stereo not drawn) (Boc-Gly-Phe-Leu-OEt; configuration not given here) | inactive |
| CCCCCCCCC/C=C1\CCC(CN(C)C)C1=O (stereo not drawn) | inactive |
| O=S(=O)(O)SC/C=C\CSS(=O)(=O)O | inactive |
| COC(CN1C(=O)c2cccc3cccc(c23)C1=O)OC | inactive |
| CC(=O)NC1=C(NCCC(C)C)C(=O)c2ccccc2C1=O | inactive |
| O=C(CN(c1ccccc1)c1ccccc1)N1c2ccccc2C2C=CC=CC21 (stereo not drawn) | inactive |
| S=C(Nc1ccc(Cl)cc1)SC1CCCCC1 | inactive |
| Cc1ccc([N+](=O)[O-])cc1S(=O)(=O)Nc1ccc(C(=O)/C=C/c2cccs2)cc1 | inactive |
| CCCCCCCCCCCCCCCCOc1ccc(/C=C/C2=[N+](CCCl)CCO2)cc1 | inactive |
| CN(C)CCCNC(=O)c1cc(NS(=O)(=O)c2ccc3c(c2)C(=O)c2ccccc2C3=O)cn1C | inactive |
| Cc1cccc(C)c1NC(=O)CCC(=O)NNc1nnc(C)n1N | inactive |
